Measured values drawn from PubChem BioAssay for this set.

Assay Notes: probe aLefty1 binding on compound microarray – biochemical, small-molecule microarray, 635/667 nm fluorescence, primary screen (AID 1153);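 note: score merges spot fluorescence with signal-to-noise ratio from the scanned slide images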
Condition Label: higher = more signal
Result Type: composite z-score
Simply state the number, no unit and no words.

Lab note: COc1ccc([Si](C)(C)[C@@H]2[C@@H](CC(=O)N3Cc4ccccc4C[C@H]3CO)O[C@]3(C(=O)N(Cc4cccc(N5CCC5=O)c4)c4ccccc43)[C@H]2C)cc1 gave composite z-score of 0.199

Lab note: O=C1C[C@@](C(=O)NCc2ccccc2)(c2ccc([N+](=O)[O-])cc2)[C@@H](c2ccc(CO)cc2)N1CC12CC3CC(CC(C3)C1)C2 gave composite z-score of -0.287

Lab note: NCCCCCNC(=O)[C@H]1C[C@H]2C(=O)N[C@@H](Cc3ccccc3)C(=O)N2[C@H]1c1cccc(OCCO)c1 gave composite z-score of 1.17

* * *

Tested on: Wnt5a (protein binding on small-molecule microarray)
Assay Notes: small molecules binding Wnt5a protein – biophysical, small-molecule microarray, 635/667 nm fluorescence, primary screen (AID 1142);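 note: fluorescence read at 667 nm with signal to noise per printed feature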
Condition Label: 635 nm fluorescence, higher = more signal
Recorded composite z-score for the following molecules
Simply state the number, no unit and no words.

Lab note: COC(=O)c1c(CC[C@@H](CO)NC(=O)N[C@H](Cc2ccccc2)Cn2cc(-c3ccccn3)nn2)oc(C(C)=O)c1C(=O)OC gave composite z-score of -0.293

Lab note: CC(C)C(=C=CC[C@H](O)c1ccc(CO)o1)CCO gave composite z-score of -0.0164

Lab note: CO[C@H]1O[C@H](CO)[C@@H](OC(=O)Nc2ccccc2-c2ccccc2)[C@H](OC(=O)Nc2ccccc2-c2ccccc2)[C@@H]1OC(=O)Nc1ccccc1-c1ccccc1 gave composite z-score of 0.689

* * *

Recorded z-score for the following molecules
Assay Notes: plasmodial surface anion channel blockers, osmotic lysis – cell-based, P. falciparum Indochina, OD700, 2 h, primary screen (AID 1155);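 note: lysis reports solute entry through the parasite surface anion channel PSAC; channel blockers reduce lysis of infected cells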
Condition Label: P. falciparum Indochina infected erythrocytes, higher = more signal, called active from +8 up or from −8 down
Simply state the number, no unit and no words.

Here is how some molecules turned out for z-score.
Lab note: C#CCNCc1ccccc1 gave z-score of 0.876

Lab note: [N-]=[N+]=NCc1ccccc1[C@@H]1OC(c2ccc(OCCCO)cc2)=N[C@]1(CCS(=O)(=O)c1ccccc1)C(N)=O gave z-score of 14.7

Lab note: COc1cc2c(cc1O)C(c1cccs1)N(Cc1ccc([N+](=O)[O-])o1)CC2 (configuration not stated) gave z-score of 7.24

Lab note: COc1cc2c(cc1O)C(c1cccs1)N(Cc1cccc(OC(F)(F)F)c1)CC2 (configuration not stated) gave z-score of 0.192

Lab note: COCCOC(=O)N1C(=O)[C@@]2(c3cc(C#CC4=CCCCC4)ccc31)[C@H](C(N)=O)[C@H]1C(=O)O[C@H](c3ccccc3)[C@H](c3ccccc3)N1[C@@H]2c1ccc(O)cc1 gave z-score of -0.933

Lab note: COCCCNC(=O)[C@@]1(Cc2ccccc2CN=[N+]=[N-])N=C(c2ccc(OCCCO)cc2)O[C@H]1c1ccccc1CN=[N+]=[N-] gave z-score of 48.5

Turning to the following molecule.
Lab note: C=C(C(=O)CC[C@H](OC(C)=O)c1ccccc1OCCO)C(C)C gave z-score of 2.54
